Source listed as patent US20120015925A1.

SYSTEM_TESTED: human IBAT (Homo sapiens)
Sequence (Q12908 whole entry): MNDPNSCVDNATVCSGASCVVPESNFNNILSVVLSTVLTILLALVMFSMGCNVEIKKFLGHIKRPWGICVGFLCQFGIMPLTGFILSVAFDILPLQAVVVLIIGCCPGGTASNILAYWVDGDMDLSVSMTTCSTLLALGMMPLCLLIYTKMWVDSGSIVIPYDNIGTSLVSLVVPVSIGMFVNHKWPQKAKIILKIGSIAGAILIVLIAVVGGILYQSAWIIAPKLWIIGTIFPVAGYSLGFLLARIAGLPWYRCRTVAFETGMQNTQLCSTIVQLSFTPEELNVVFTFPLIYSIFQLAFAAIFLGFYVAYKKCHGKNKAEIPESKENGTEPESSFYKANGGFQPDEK
ASSAY_TEXT: In vitro assay using Cos 7 cells, transiently expressed human IBAT
Type: cell-based
EXPERIMENTAL_CONTEXT: [3H]-taurocholate 8 μM uptake, 37° C., 60 minutes
READOUT_TYPE: IC50 (nM)

{"MOLECULE": "CCCCC1(CCCC)CS(=O)(=O)c2ccc(N(C)C)cc2C(c2cccc(NC(=S)Nc3ccc(C[N+]45CCC(c6ccccc6)(CC4)CC5)c(F)c3)c2)N1.[Br-] (stereo not drawn) [EXAMPLE P343]", "UNIT_STRING": "nM", "REPORTED_MEASUREMENT": 16}
{"MOLECULE": "CCCCC1(CCCC)CS(=O)(=O)c2ccc(N(C)C)cc2C(c2cccc(NC(=S)Nc3ccc(C[N+]45CCC(c6ccccc6)(CC4)CC5)cc3Br)c2)N1.[Br-] (stereo not drawn) [EXAMPLE P346]", "UNIT_STRING": "nM", "REPORTED_MEASUREMENT": 19}
{"MOLECULE": "CCCCC1(CCCC)CS(=O)(=O)c2ccc(N(C)C)cc2C(c2cccc(NC(=S)Nc3ccc(C[n+]4ccc(-c5ccccc5)cc4)cc3Br)c2)N1 (stereo not drawn) [EXAMPLE P382]", "UNIT_STRING": "nM", "REPORTED_MEASUREMENT": 28}
{"MOLECULE": "CCCCC1(CCCC)CS(=O)(=O)c2ccc(N(C)C)cc2C(c2cccc(NC(=S)Nc3ccc(C[N+]45CCC(c6ccccc6)(CC4)CC5)c(Cl)c3)c2)N1.[Br-] (stereo not drawn) [EXAMPLE P345]", "UNIT_STRING": "nM", "REPORTED_MEASUREMENT": 23}
{"MOLECULE": "CCCCC1(CCCC)CS(=O)(=O)c2ccc(N(C)C)cc2C(c2cccc(NC(=S)CCCCCCC[N+]34CCC(CC3)CC4)c2)N1.[Br-] (stereo not drawn) [EXAMPLE 3932]", "UNIT_STRING": "nM", "REPORTED_MEASUREMENT": 36}
{"MOLECULE": "CCCCC1(CCCC)CS(=O)(=O)c2ccc(N(C)C)cc2C(c2cccc(NC(=S)Nc3ccc(C[n+]4ccc(CCC)cc4)cc3)c2)N1 (stereo not drawn) [EXAMPLE 3711]", "UNIT_STRING": "nM", "REPORTED_MEASUREMENT": 63}
